- protocolSummary: gradient 5% acetonitrile 3 min, to 50% in 2 min, to 85% in 15 min, held 3 min, 100 µL/min
- cond: column: Zorbax Extend-C18 2.1 x 50 mm; eluents: water / acetonitrile, 0.1% formic acid
Criterion: RP-LC retention time strictly under 900 s. Met: rule met. Not met: rule not met.

Regarding CCC(C)n1c(=O)c2ccccc2n(Cc2nc(-c3ccc(SC)cc3)no2)c1=O (configuration not stated) , kindly confirm whether its RP-LC retention time is beneath 900 s.
rule not met

Also `CCCN1C(=O)COc2ccc(-c3noc(-c4ccc(F)c(F)c4)n3)cc21` ?
rule not met

Also `Cn1nc(-c2nnc(-c3ccc(F)cc3)o2)c2c1CCN(C(=O)Nc1ccc(Cl)cc1)C2` ?
rule not met

Also `Cc1ccnc(Nc2nc(-c3ccccc3)cs2)c1` ?
rule met

Also `CSc1ccc(-c2nc3cnccn3c2Nc2cccc(Cl)c2C)cc1` ?
rule not met

Also `Cn1nc(CNC(=O)COc2ccc(Cl)cc2)c2ccccc21` ?
rule met

---

- protocolSummary: gradient 5% acetonitrile 3 min, to 50% in 2 min, to 85% in 15 min, held 3 min, 100 µL/min
- cond: column: Zorbax Extend-C18 2.1 x 50 mm; eluents: water / acetonitrile, 0.1% formic acid
Classification by RP-LC retention time | ranges: bin 1: < 700 s; bin 2: ≥ 700 s and < 900 s; bin 3: ≥ 900 s

Exam item: assign `Cc1cccc(NC(=O)CSc2cc(N3CCN(c4ccccc4F)CC3)ncn2)c1` to the correct category.
bin 3

Also CCCN1C(=O)C2CCC(=O)N2c2ccc(C(=O)NCCCN3CCCC3=O)cc21 (configuration not stated) ?
bin 1

Also `CCN1c2ccc(C)cc2C(=O)NC12CCN(C(=O)c1ccccc1OC)CC2` ?
bin 2

Also Cc1cc(C(=O)NCC2CCCO2)c2cccc(C)c2n1 (configuration not stated) ?
bin 1

Also `Cc1ccc(C(=O)Nc2cc(-c3cccnc3)no2)cc1` ?
bin 2

Also `CCn1cc(S(=O)(=O)Nc2ccc(F)cc2Cl)c2cccnc21` ?
bin 2

Also `CC(=O)NCCc1csc(C2CCN(C(=O)C3CCCC3)CC2)n1` ?
bin 1

Also CC(C)NC(=O)N1CC(c2nc(-c3cccnc3)no2)C2(CCOCC2)C1 (configuration not stated) ?
bin 1

Also `CN1C(=O)COc2ccc(-c3csc(NC(=O)c4ccc(F)cc4)n3)cc21` ?
bin 3

Also `CCOC(=O)CNC(=O)NCc1cccn1Cc1cccc(C)c1` ?
bin 2

Also COC(=O)c1sccc1NC(=O)NCC(c1ccc(OC)c(OC)c1)c1c[nH]c2ccccc12 (configuration not stated) ?
bin 3

Also `CCOC(=O)c1cccc(NS(=O)(=O)c2cc(-c3c(CC)noc3NC(C)=O)ccc2OC)c1` ?
bin 2

Also CCCNC(=O)C1CCCN(c2ccc(SCC(=O)Nc3c(C)cccc3Cl)nn2)C1 (configuration not stated) ?
bin 1

Also `CCOCCCNC(=O)c1c(N2CCCC2=O)c2cc(OC)ccc2n1CC` ?
bin 2

Also CCCn1ccc2oc(C)c(C(=O)NC(C)c3ccc(F)cc3)c2c1=O (configuration not stated) ?
bin 3

Also `Cc1csc(COc2ccc(C(=O)Nc3ccccc3OC(F)(F)F)cc2)n1` ?
bin 3

Also CCNc1cc(N2CCCC(CCC(=O)NCc3ccccc3OC)C2)ncn1 (configuration not stated) ?
bin 1

Also `CCOc1ccccc1NS(=O)(=O)c1cc(-c2nc(C(C)(C)C)cs2)cs1` ?
bin 3

Also `CC(=O)NCC(=O)N1CC(F)(F)C[C@H]1c1nc(C2CC2)no1` ?
bin 1

Also `Cc1cc(=O)n(CC(=O)Nc2cc(C)on2)c(N2CCOCC2)n1` ?
bin 1

Also `COc1ccc(OC)c(-c2csc(-c3nnn(-c4cccc(Cl)c4)c3N)n2)c1` ?
bin 3

Also CC(C)CN1C(=O)c2cccn2CC1C(=O)NCCCN1CCOCC1 (configuration not stated) ?
bin 1

Also `Cc1ccccc1CC(=O)N1CCN(c2cc(C)n3cnnc3n2)CC1` ?
bin 1

Also `CCOc1ccc(OCC)c(NC(=O)CSc2nnc3c4cc(-c5ccc(OC)cc5)nn4ccn23)c1` ?
bin 3

Also `CCCCNC(=O)c1cn(CC)nc1S(=O)(=O)N1CCN(c2ccccc2OCC)CC1` ?
bin 3

Also `Cc1cccc(C)c1-n1ccn(Cc2nc(-c3ccccc3)no2)c(=O)c1=O` ?
bin 2

---

- protocolSummary: gradient 5% acetonitrile 3 min, to 50% in 2 min, to 85% in 15 min, held 3 min, 100 µL/min
- cond: column: Zorbax Extend-C18 2.1 x 50 mm; eluents: water / acetonitrile, 0.1% formic acid
Criterion: RP-LC retention time strictly under 900 s. Met: Satisfied. Not met: Not satisfied.

Regarding COc1ccccc1C(=O)N1CCCC1COc1ccc(C(=O)N2CCCC2)cc1 (stereo not given) , kindly confirm whether its RP-LC retention time is beneath 900 s.
Satisfied

Also `O=C1NCCCCCN(C(=O)Nc2ccccc2F)[C@H]2CCC[C@@H]12` ?
Satisfied

Also `CC(C)n1ccc(-c2nnc(NC(=O)COc3ccc(Cl)cc3Cl)o2)n1` ?
Satisfied

Also `CN1C(=O)CCc2cc(NS(=O)(=O)c3ccc(Br)cc3)ccc21` ?
Satisfied

Also `CCOc1ccc(-c2cn3ccn(-c4cc(C)c(Cl)cc4OC)c(=O)c3n2)cc1` ?
Not satisfied

Also `Cc1cc(N2C=C(C#N)S(=O)(=O)c3ccc(F)cc32)ccc1Br` ?
Not satisfied

Also `O=c1n(Cc2ccccc2F)nc2ccc(S(=O)(=O)N3CCc4ccccc4C3)cn12` ?
Not satisfied

---

- protocolSummary: gradient 5% acetonitrile 3 min, to 50% in 2 min, to 85% in 15 min, held 3 min, 100 µL/min
- cond: column: Zorbax Extend-C18 2.1 x 50 mm; eluents: water / acetonitrile, 0.1% formic acid
Classification by RP-LC retention time | ranges: LOW = under 700 s, MID = from 700 s up to 900 s, HIGH = 900 s and over

Exam item: assign `CC(C)c1noc(-c2ccnc(-n3cnc(C(=O)N4CCSCC4)c3)c2)n1` to the correct category.
MID

Also `CC(C)CNC(=O)CCc1nc2ccccc2n(CC(=O)NCc2ccc3c(c2)OCO3)c1=O` ?
MID

Also `Cc1cccc(CC(=O)NCCSc2ncc(-c3ccccc3)[nH]2)c1` ?
LOW

Also `c1ccc(CN2CCN(c3ncccc3-c3nc(-c4ccccc4)no3)CC2)cc1` ?
MID

Also `CCc1noc(-c2ccc(-n3ncc(C(=O)N4CCN(C)CC4)c3C)nc2)n1` ?
LOW

Also `Clc1ccc(-c2nc(NCc3cccnc3)c3ccccc3n2)cc1` ?
LOW

Also `COc1ccc(-n2cc(C(=O)OCc3cc(=O)n4ccccc4n3)c3ccccc3c2=O)cc1` ?
MID

Also Cc1ccc(-n2c(N3CCCC(C(=O)Nc4ccc(F)c(C)c4)C3)nc3ccsc3c2=O)cc1 (configuration not stated) ?
HIGH

Also `Cc1cc(NC(=O)c2ccccc2Br)nc2c1c(=O)oc1ccccc12` ?
HIGH

Also CC1CCCN(C(=O)CN2CCN(C)CC2)C1 (configuration not stated) ?
LOW

Also COCCN1CC2(CCN(S(=O)(=O)c3cccc(Cl)c3)CC2)C1c1ccccc1 (configuration not stated) ?
MID

Also `COc1ccc(OC)c(CNS(=O)(=O)c2cc(-c3nc(C)c(C)s3)sc2C)c1` ?
HIGH

Also `O=C(CCn1c(=O)oc2ccccc21)N1CC(F)(F)C[C@H]1COc1ccccc1` ?
HIGH

Also `O=C(Cn1c(=O)c2nncn2c2ncccc21)N1CCN(c2ccc(Cl)cc2)CC1` ?
MID

Also `O=C(Cn1cc(C(=O)c2ccco2)c2ccccc21)NCc1ccc2c(c1)OCCCO2` ?
MID

Also `Cc1ccccc1Nc1c(-c2c(F)cccc2Cl)nc2ccc(Cl)cn12` ?
HIGH

Also `Cc1cccc(-c2nnc(SCC(=O)N3CCC(C)CC3)o2)c1` ?
HIGH

Also `CCn1ccc(C(=O)N2CC(n3cc(COC)nn3)C2)n1` ?
LOW

Also `CN(C)c1nc2ncn3c(=O)n(CC(=O)NC4CCCC4)nc3c2s1` ?
LOW

Also COc1ccc(CCNC(=O)c2ccc3c(c2)NC(=O)C2CCCCN32)cc1OC (configuration not stated) ?
MID

Also CCCNC(=O)CN1C(=O)C2CCCCN2c2ccc(S(=O)(=O)N(CC)CC)cc21 (configuration not stated) ?
MID

Also `COc1cccc(-c2[nH]ncc2CN2C[C@@H]3CCN(S(C)(=O)=O)C[C@]3(CF)C2)c1` ?
LOW

Also `COc1ccc(C(=O)N2CCN(c3cc(-c4cccs4)[nH]n3)CC2)cc1` ?
MID

Also `O=c1[nH]c(-c2cccc(O)c2)nc2sc3c(c12)CCCC3` ?
MID

Also `O=C(Cc1csc(-n2cccc2)n1)N1CCN(c2ccccn2)CC1` ?
LOW

Also CC(C)CCNC(=O)C1(C)CN(S(=O)(=O)c2ccccc2)CC(=O)N1Cc1ccc(Cl)cc1 (configuration not stated) ?
HIGH

Also CC1CCCN(C(=O)c2cn(-c3ccc(-c4nc(C5CC5)no4)cn3)cn2)C1 (configuration not stated) ?
MID
